Catalogue of inhibition at 0.1 µM values
Tested System: human 11b-hsd-1 (Homo sapiens)
Sequence (P28845 whole entry): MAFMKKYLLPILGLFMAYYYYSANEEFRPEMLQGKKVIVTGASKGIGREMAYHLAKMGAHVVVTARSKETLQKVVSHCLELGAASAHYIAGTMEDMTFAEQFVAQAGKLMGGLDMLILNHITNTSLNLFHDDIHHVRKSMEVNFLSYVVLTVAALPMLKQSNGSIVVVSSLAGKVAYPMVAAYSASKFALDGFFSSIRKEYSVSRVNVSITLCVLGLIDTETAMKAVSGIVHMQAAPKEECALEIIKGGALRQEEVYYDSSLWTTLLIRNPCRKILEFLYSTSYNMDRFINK
Test Summary: Inhibition constant Ki of human 11b-hsd-1 (3H-cortisone to 3H-cortisol conversion, HPLC)
Assay type: biochemical
Condition Notes: 0.1 μM compound
Give the quantity in %, number only.

CC(C)CN1CCC[C@@H]1C(=O)N[C@H](C)c1ccc(Cl)cc1 :: 100
N#Cc1ccc(CN2CCOC[C@@H]2C(=O)NC2CCCCC2)cc1 :: 100

Input line: Missing value: inhibition at 0.1 µM, human 11b-hsd-1 (Homo sapiens), entry O=C(NC12CC3CC(CC(C3)C1)C2)[C@@H]1[C@H]2CC[C@H](C2)N1Cc1ccc(Cl)cc1 (racemic) . Fill in?
Output line: 100

Input line: // map Cc1ccccc1CNC(=O)[C@H]1CCCN1CC(C)C to recorded inhibition at 0.1 µM (system: human 11b-hsd-1 (Homo sapiens))
Output line: 100

Input line: Request: inhibition at 0.1 µM, test system human 11b-hsd-1 (Homo sapiens), entry Cc1ncccc1O[C@@H]1CN[C@H](C(=O)NC2C3CC4CC(C3)CC2C4)C1 (stereo partly drawn)
Output line: 80.7

Input line: Under human 11b-hsd-1 (Homo sapiens): inhibition at 0.1 µM value of O=C(NCc1c(F)cccc1F)[C@H]1COCCN1Cc1ccccc1 ?
Output line: 68.9

Input line: Param readout = inhibition at 0.1 µM; param system = human 11b-hsd-1 (Homo sapiens); param query = CC(C)CN1CCC[C@@H]1C(=O)NCc1c(F)cccc1F ; response: value
Output line: 97.6

Input line: Which measured inhibition at 0.1 µM belongs to O=C(NC12CC3CC(CC(C3)C1)C2)[C@H]1CCCN1Cc1ccccn1 , tested on human 11b-hsd-1 (Homo sapiens)?
Output line: 100

Input line: Given the entry CC(C)CN1CCOC[C@@H]1C(=O)NC1CCCCC1 , what inhibition at 0.1 µM was observed with human 11b-hsd-1 (Homo sapiens)?
Output line: 100
